B1: ZBED3 (parent)
chain: GPGFHAGTSALWRHLRSAHRRELE

variants of: B1; test: protein stability index of a GFP-peptide fusion (GPS, HEK-293T) (PSI 1-6); higher = more stable; conditions: c terminus: a fixed tail appended;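 note: lentivirally expressed fusions sorted by FACS into six bins by GFP to DsRed ratio, PSI derived from sequencing read proportions per bin multiplied by bin number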
Each entry below carries its recorded protein stability index.
quantity.kind: protein stability index

- S9Y: 3.23
- W12D: 2.92
- G3P: 3.38
- F4N: 2.84
- R20Y: 1.62
- R16D: 2.25
- L15N: 2.57
- G3E: 3.67
- H5D: 3.69
- E22Y: 1.47
- H14C: 2.17
- A18D: 2.02
- H14N: 2.16
- L11P: 2.23
- A10V: 2.6
- T8W: 2.23
- T8I: 2.09
- H19R: 2.68
- E22H: 3.09
- W12T: 2.54
- S17A: 2.14
- L11F: 1.7
- A6V: 1.85
- R16H: 2.17
- R20L: 1.59
- G7M: 2.35
- E24F: 2.32
- G3F: 1.74
- A6E: 3.04
- L11K: 3.32
- A10K: 2
- F4Y: 3.37
- T8H: 2.4
- E24S: 1.97
- G7I: 2.31
- R16K: 2.41
- W12S: 2.61
- W12I: 2.07
- L23W: 1.88
- A10L: 1.88
- T8P: 2.88
- F4K: 3.62
- G1Q: 3.51
- S17F: 2.25
- A6G: 2.54
- W12P: 2.14
- L23K: 2.79
- G1T: 3.33
- R21F: 1.02
- R13C: 1.47
- W12G: 1.64
- R20Q: 2.31
- S9P: 2.08
- F4E: 2.83
